target: HLA-A0201 (Homo sapiens, UniProt P04439, D140Y/D185E/D98H/E176V/E277Q/G131W/G231S/I119V/I121R/I166T/I218V/L300P/L318F/N151K/N90K/P208A/P217A/Q86G/Q94H/R138H/R169H/T345S); construct: expressed in transfected cells; host or cells: HMy2.CIR; experiment: cell-based; format: binding
Residues, ends and D or L forms follow the SMILES beside them.
assayMetric: IC50

# compound, readoutValue
data = [
    ("CC(C)C[C@H](NC(=O)CN)C(=O)N[C@@H](CO)C(=O)N1CCC[C@H]1C(=O)N[C@H](C(=O)N[C@H](C(=O)N[C@@H](Cc1c[nH]c2ccccc12)C(=O)N[C@@H](CC(C)C)C(=O)N[C@@H](CO)C(=O)N[C@H](C(=O)O)C(C)C)C(C)C)[C@@H](C)O [Epitope P8]", "> 15 µM"),
    ("CC(C)C[C@H](NC(=O)[C@H](CCC(=O)O)NC(=O)[C@H](CCC(=O)O)NC(=O)[C@H](Cc1c[nH]c2ccccc12)NC(=O)[C@H](CC(=O)O)NC(=O)[C@H](CCCCN)NC(=O)[C@H](Cc1ccccc1)NC(=O)[C@H](CC(C)C)NC(=O)[C@@H](N)CS)C(=O)O [Epitope P12] (H-CLFKDWEEL-OH; N-terminus and C-terminus assumed)", "< 5 µM"),
]

## Input Write down IC50 measured for item CC(C)C[C@H](NC(=O)[C@@H](N)Cc1ccccc1)C(=O)N1CCC[C@H]1C(=O)N[C@@H](CO)C(=O)N[C@@H](CC(=O)O)C(=O)N[C@@H](Cc1ccccc1)C(=O)N[C@@H](Cc1ccccc1)C(=O)N1CCC[C@H]1C(=O)N[C@@H](CO)C(=O)O [Epitope P67] (H-FLPSDFFPS-OH; N-terminus and C-terminus assumed)
## Output < 5 µM

----------
molecular target: HLA-A0206 (Homo sapiens, UniProt P04439, D140Y/D185E/D98H/E176V/E277Q/F33Y/G131W/G231S/I119V/I121R/I166T/I218V/L300P/L318F/N151K/N90K/P208A/P217A/Q86G/Q94H/R138H/R169H/T345S); assay: cell-based
Residues, ends and D or L forms follow the SMILES beside them.
Assign IC50 to each entry below.

# molecule, IC50
data = [
    ("CC(C)C[C@H](NC(=O)[C@H](CCC(=O)O)NC(=O)[C@H](CCCNC(=N)N)NC(=O)[C@H](CO)NC(=O)[C@H](C)N)C(=O)N[C@H](C(=O)N[C@H](C(=O)N[C@@H](CO)C(=O)N[C@@H](Cc1ccc(O)cc1)C(=O)O)C(C)C)C(C)C [Epitope P88] (H-ASRELVVSY-OH; N-terminus and C-terminus assumed)", "> 15 µM"),
    ("CSCC[C@H](NC(=O)[C@H](CC(N)=O)NC(=O)[C@@H](NC(=O)[C@H](CC(N)=O)NC(=O)[C@@H](NC(=O)[C@H](Cc1ccc(O)cc1)NC(=O)[C@@H](N)CO)C(C)C)[C@@H](C)O)C(=O)NCC(=O)N[C@@H](CC(C)C)C(=O)O [Epitope P22] (H-SYVNTNMGL-OH; N-terminus and C-terminus assumed)", "> 15 µM"),
    ("CC(C)C[C@H](NC(=O)[C@@H](N)Cc1ccccc1)C(=O)N1CCC[C@H]1C(=O)N[C@@H](CO)C(=O)N[C@@H](CC(=O)O)C(=O)N[C@@H](Cc1ccccc1)C(=O)N[C@@H](Cc1ccccc1)C(=O)N1CCC[C@H]1C(=O)N[C@@H](CO)C(=O)O [Epitope P67] (H-FLPSDFFPS-OH; N-terminus and C-terminus assumed)", "< 5 µM"),
    ("CC(C)C[C@H](NC(=O)[C@@H]1CCCN1C(=O)[C@H](CC(C)C)NC(=O)[C@H](Cc1ccc(O)cc1)NC(=O)[C@H](CCCCN)NC(=O)[C@@H](NC(=O)[C@@H](NC(=O)[C@@H](N)CCCCN)C(C)C)[C@@H](C)O)C(=O)N[C@@H](CC(=O)O)C(=O)N[C@@H](CCCCN)C(=O)O [Epitope P15] (H-KVTKYLPLDK-OH; N-terminus and C-terminus assumed)", "> 15 µM"),
]

# next molecule below
## Input Write down IC50 measured for item CC[C@H](C)[C@H](NC(=O)[C@H](CO)NC(=O)[C@H](Cc1ccc(O)cc1)NC(=O)[C@@H](N)CC(C)C)C(=O)N[C@@H](CC(C)C)C(=O)N[C@@H](CO)C(=O)N1CCC[C@H]1C(=O)N[C@@H](Cc1ccccc1)C(=O)N[C@@H](CC(C)C)C(=O)O [Epitope P19] (H-LYSILSPFL-OH; N-terminus and C-terminus assumed)
## Output > 15 µM
